- assayed-target: human neuropeptide Y5 receptor (Homo sapiens, UniProt Q15761)
- Construct: expressed in transfected cells; host or cells: HEK-293 (stably transfected, G-418 selected); membranes
- Sequence (Q15761 whole entry): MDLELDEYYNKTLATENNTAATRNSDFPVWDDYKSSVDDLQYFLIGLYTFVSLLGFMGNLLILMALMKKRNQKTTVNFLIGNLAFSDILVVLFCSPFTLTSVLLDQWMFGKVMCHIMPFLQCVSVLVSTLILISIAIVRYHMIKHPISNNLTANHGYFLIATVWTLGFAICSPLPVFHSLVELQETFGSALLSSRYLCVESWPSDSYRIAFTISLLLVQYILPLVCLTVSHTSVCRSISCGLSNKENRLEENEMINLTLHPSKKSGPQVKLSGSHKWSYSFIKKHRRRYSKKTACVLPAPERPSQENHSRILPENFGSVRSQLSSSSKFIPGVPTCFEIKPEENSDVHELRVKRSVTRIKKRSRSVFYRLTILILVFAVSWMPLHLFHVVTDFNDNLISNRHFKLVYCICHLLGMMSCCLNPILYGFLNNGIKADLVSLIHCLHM
- measurement-description: NPY5 HTS centrifugation assay: competition with 125I-PYY for binding to membranes of NPY5-transfected HEK293 cells
- setup-conditions: 3 uM compound, 80 pM 125I-PYY, 1 hr room temperature
% Inh @ 3 uM (% Inhibition of 125I-PYY Binding) strictly less than 90% = condition met. Otherwise condition not met.

Examples from the recorded data:
Lookup: Quick check: does CC(C)(C)OC(=O)NC1CCN(CC(=O)NC2CCc3cc(F)ccc3C2Cc2cccnc2)C1 (mixture of isomers) [Compound 56] have % Inh @ 3 uM (% Inhibition of 125I-PYY Binding) under 90%?
Found: condition not met

Lookup: Please do the same for COc1ccc2c(c1)CCC(NC(=O)CN1CCC(n3c(=O)[nH]c4ccccc43)CC1)C2 (stereo not shown) [Compound 82] as well.
Found: condition met

Lookup: Please do the same for CC(C)(C)OC(=O)NC1CCN(CC(=O)NC2CCc3cc(F)ccc3C2Cc2cccnc2)C1 (stereo not shown) [Compound 55] as well.
Found: condition not met

Next up:
Lookup: Quick check: does CC(=O)NC(CCCCNS(=O)(=O)c1ccccc1)C(=O)NC1CCc2ccccc2C1Cc1cccnc1 (mixture of isomers) [Compound 37] have % Inh @ 3 uM (% Inhibition of 125I-PYY Binding) under 90%?
Found: condition not met

Reference source: patent US7071195B2
